The reported numbers originate from the nanobody polyreactivity screen of Harvey et al. (2022).

# Assay Summary: yeast display, Sf9 membrane polyspecificity reagent, FACS + sequencing; frameworks hold sequencing errors
Recorded Metric: polyreactivity (PSR sort gate)

Worked cases, polyreactivity (PSR sort gate) given:
QVQLVESGGGLVQAGGSLRLSCAASGSIFSGYAMGWYRQAPGKERELVAAITRSGGRTYYADSVKGRFTISRDNAKNTVYLQMNSLKPEDTAVYYCAARGGPGDDYWGQGTQVTVSS; high polyreactivity
QVQLVESGGGLVQAGGSLRLSCAASGFTFGTYDMGWYRQAPGKERELVAAISTSGGSTYYADSVKGRFTISRDNAKNTVYLQMNSLKPEDTAVYYCAARIVYYGGYGYWGQGTQVTVSS; high polyreactivity
QVQLVESGGGLVQAGGSLRLSCAASGSTIDGYAMGWYRQAPRKERELVAAITFDGSSTYYADSVKGRFTISRDNAKNTVYLQMNSLKPEVTAVYYCAAASSYWVLWDDYWGQGTQVTVSS; low polyreactivity
QLQHVESRRGLVQAGGSLRLSCAASGLTFVGYAMGWYRQAPGKERELGAAISGVGTTNYADSVKGRFTISRDNAKNTVYFQMNSLKPEDSAVYYCAKAPYPVPYGLYDYWGQGTQVTVSS; low polyreactivity

As a next step, examine the sequence that follows.
[in] Reported polyreactivity (PSR sort gate) for `QVQLVESGGGLVQAGGSLRLTCAASGRTFYYYAMGWYRQAPGKESELVAAINTRGVSTYYADSVKGRFTISRDNAKNTVYLQMNSLKPEDTAVYYCNKGFSYGRDYWGQGTQVTVSS` : what is it?
[out] high polyreactivity
